# pIC50 annotations
MEASURED_ON: c-Kit (Homo sapiens (Human), UniProt P10721)
Sequence (P10721 26-976): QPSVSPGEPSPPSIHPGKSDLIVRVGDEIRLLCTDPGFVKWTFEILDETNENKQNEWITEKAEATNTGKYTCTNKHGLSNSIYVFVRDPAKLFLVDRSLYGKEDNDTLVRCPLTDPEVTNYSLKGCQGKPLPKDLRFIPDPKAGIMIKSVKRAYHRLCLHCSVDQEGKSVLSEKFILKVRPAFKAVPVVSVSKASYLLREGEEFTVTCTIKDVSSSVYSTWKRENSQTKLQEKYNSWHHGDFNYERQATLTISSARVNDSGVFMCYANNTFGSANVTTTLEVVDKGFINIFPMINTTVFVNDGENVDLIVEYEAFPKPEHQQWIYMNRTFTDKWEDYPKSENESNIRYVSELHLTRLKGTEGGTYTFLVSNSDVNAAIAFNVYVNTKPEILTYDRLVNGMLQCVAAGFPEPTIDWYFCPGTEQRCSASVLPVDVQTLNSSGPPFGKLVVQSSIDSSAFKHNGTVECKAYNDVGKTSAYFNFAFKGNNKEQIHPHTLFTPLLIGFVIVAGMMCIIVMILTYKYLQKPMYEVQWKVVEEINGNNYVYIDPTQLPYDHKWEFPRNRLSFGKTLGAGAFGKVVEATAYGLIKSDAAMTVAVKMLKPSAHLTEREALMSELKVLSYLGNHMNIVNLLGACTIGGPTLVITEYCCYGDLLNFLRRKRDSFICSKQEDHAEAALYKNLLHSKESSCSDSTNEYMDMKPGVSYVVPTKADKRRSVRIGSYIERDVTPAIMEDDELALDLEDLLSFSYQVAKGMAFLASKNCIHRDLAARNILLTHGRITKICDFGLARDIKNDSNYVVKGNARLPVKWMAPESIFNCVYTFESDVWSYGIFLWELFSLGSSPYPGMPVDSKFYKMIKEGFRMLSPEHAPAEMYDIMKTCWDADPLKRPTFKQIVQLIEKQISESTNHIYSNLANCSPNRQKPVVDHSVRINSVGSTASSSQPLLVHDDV
ASSAY_SUMMARY: Inhibition of c-Kit kinase activity (HTRF KinEASE-TK)
Assay type: biochemical
STATED_CONDITIONS: biochemical, HTRF KinEASE-TK
Procedure: Inhibition of c-Kit, PDGFRα, PDGFRβ, CSFIR and FLT3 Kinase Activity Compounds were evaluated to determine the potency with which they inhibit the kinase activity of the following panel of tyrosine kinases: c-Kit (SignalChem, Product #: K06-11BG), PDGFRα (SignalChem, Product #: P12-18G), PDGFRβ (SignalChem, Product #: P13-11G), CSFIR (SignalChem, Product #: C74-11G) and FLT3 (Invitrogen, Product #: PR4666C). […]
pIC50: −log10 of the molar value.

{"GIVEN_SMILES": "Cc1ncc(C(=O)Nc2cc(C(=O)Nc3cncc(C(F)F)c3)c(F)cc2C)s1", "MEASURED_ON": "c-Kit (Homo sapiens (Human), UniProt P10721)", "pIC50": "> 7.00"}
{"GIVEN_SMILES": "Cc1cc(F)c(C(=O)Nc2cccc(F)c2)cc1NC(=O)c1cnc(N)s1", "MEASURED_ON": "c-Kit (Homo sapiens (Human), UniProt P10721)", "pIC50": "> 7.00"}
{"GIVEN_SMILES": "Cc1ncc(C(=O)Nc2cc(C(=O)Nc3cncc(COC(F)F)c3)c(F)cc2C)s1", "MEASURED_ON": "c-Kit (Homo sapiens (Human), UniProt P10721)", "pIC50": "> 7.00"}
{"GIVEN_SMILES": "Cc1ncc(C(=O)Nc2cc(C(=O)Nc3ccn(C(C)C)n3)c(F)cc2C)s1", "MEASURED_ON": "c-Kit (Homo sapiens (Human), UniProt P10721)", "pIC50": "> 7.00"}
{"GIVEN_SMILES": "Cc1cc(F)c(C(=O)NC2CN(C(=O)C3CC3)C2)cc1NC(=O)c1cnc(N)s1", "MEASURED_ON": "c-Kit (Homo sapiens (Human), UniProt P10721)", "pIC50": "> 7.00"}
{"GIVEN_SMILES": "Cc1ncc(C(=O)Nc2cc(C(=O)N[C@@H]3C[C@H]3c3ccccc3)c(F)cc2C)s1", "MEASURED_ON": "c-Kit (Homo sapiens (Human), UniProt P10721)", "pIC50": "> 7.00"}
{"GIVEN_SMILES": "CCc1ccc(NC(=O)c2cc(NC(=O)c3cnc(C)s3)c(C)cc2F)nc1", "MEASURED_ON": "c-Kit (Homo sapiens (Human), UniProt P10721)", "pIC50": "> 7.00"}
{"GIVEN_SMILES": "Cc1ncc(C(=O)Nc2cc(C(=O)Nc3ccc(C#N)cn3)c(F)cc2C)s1", "MEASURED_ON": "c-Kit (Homo sapiens (Human), UniProt P10721)", "pIC50": "6.00 to 7.00"}

Given the entry COc1ccc(NC(=O)c2cc(NC(=O)c3cnc(N)s3)c(C)cc2F)c(F)c1 , report its measured pIC50.
> 7.00

What does the data say about its pIC50? Entry: Cc1ncc(C(=O)Nc2cc(C(=O)Nc3cnc(N4CC[C@@H](F)C4)cn3)c(F)cc2C)s1
> 7.00

Entry Cc1ncc(C(=O)Nc2cc(C(=O)Nc3cc(CC4CC4)ncn3)c(F)cc2C)s1 has what pIC50?
> 7.00

Which measured pIC50 value corresponds to Nc1ncc(C(=O)Nc2cc(C(=O)Nc3ccc(OCC(F)(F)F)cn3)c(F)cc2F)s1 ?
> 7.00

Query (compound): Cc1ncc(C(=O)Nc2cc(C(=O)Nc3cncc(C4CC4)c3)c(F)cc2C)s1 ; field requested: pIC50
> 7.00

Fill blank: measured pIC50 of the compound Cc1cc(F)c(C(=O)Nc2ccc(OC3CC3)cn2)cc1NC(=O)c1cnc(NC(=O)C2CC2)s1 is ____.
> 7.00

Consider the compound Cc1ncc(C(=O)Nc2cc(C(=O)NCc3ccccc3F)c(F)cc2C)s1 and give its measured pIC50.
6.00 to 7.00

Record request: pIC50 value, item Cc1cc(F)c(C(=O)NCC(F)(F)F)cc1NC(=O)c1cnc(N)s1
> 7.00

// lookup pIC50 for CO[C@H]1C[C@@H](n2nccc2NC(=O)c2cc(NC(=O)c3cnc(N)s3)c(C)cc2F)C1
6.00 to 7.00

Each recorded value in this set is attributed to patent US20250145606A1.
